experiment: Toxicity liver stage against HepG2, at 10uM; type: cell-based; design: test concentration 10 uM, cell line HepG2-A16-CD81EGFP; conditions: human, HepG2-A16-CD81EGFP cells; read-out: INHIBITION
endpoint: cytotoxicity at 10 µM (%)

In [3]: df
Out[3]:
                                   compound  endpoint_value
0  CNC(=O)C1(c2cnccn2)CCCN1C(=O)c1ccccc1C (stereo not drawn)           -16.5
1          CN1CCc2ncc(CNC(=O)c3cccn3C)n2CC1            1.27
2  CSCC(CCO)NC(=O)c1cccc(F)c1Cl (stereo not drawn)            11.7
